# TESTED SYSTEM: BTK (C481S) (Homo sapiens, UniProt Q06187, C481S)
# Sequence (Q06187 whole entry C481S): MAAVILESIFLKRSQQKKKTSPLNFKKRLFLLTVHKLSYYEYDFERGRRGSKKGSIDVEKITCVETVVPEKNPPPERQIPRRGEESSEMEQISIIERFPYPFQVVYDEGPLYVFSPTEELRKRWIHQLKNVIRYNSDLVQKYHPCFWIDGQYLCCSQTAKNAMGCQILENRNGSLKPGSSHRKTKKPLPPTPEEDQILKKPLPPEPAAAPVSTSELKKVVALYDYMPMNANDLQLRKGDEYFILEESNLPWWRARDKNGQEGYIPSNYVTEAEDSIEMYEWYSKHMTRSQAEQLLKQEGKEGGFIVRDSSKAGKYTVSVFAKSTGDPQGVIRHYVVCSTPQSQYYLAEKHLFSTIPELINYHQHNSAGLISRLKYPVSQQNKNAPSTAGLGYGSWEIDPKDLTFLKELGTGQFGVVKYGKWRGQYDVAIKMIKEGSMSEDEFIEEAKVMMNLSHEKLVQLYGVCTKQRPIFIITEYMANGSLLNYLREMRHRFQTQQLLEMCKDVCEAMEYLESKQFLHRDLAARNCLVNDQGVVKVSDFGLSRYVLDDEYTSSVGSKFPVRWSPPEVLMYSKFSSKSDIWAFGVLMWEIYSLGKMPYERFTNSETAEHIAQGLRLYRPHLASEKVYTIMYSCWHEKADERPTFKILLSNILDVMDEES
# ASSAY OVERVIEW: In vitro kinase inhibition activity (33P-ATP radiometric filter assay), BTK (C481S)
# EXPERIMENTAL SETUP: BTK (C481S) 6 nM, pEY 0.2 mg/ml, ATP 10 μM, 15 min compound incubation, 2 h reaction
METRIC: IC50

Need IC50, item Cc1nc(Nc2ncc(C(=O)Nc3c(C)cc(F)cc3Cl)s2)cc(N2CCN(CCO)CC2)n1
32 pM

====

Entries and their CLint scaled at 1 μM
# ASSAY OVERVIEW: in vitro
# EXPERIMENTAL SETUP: human, microsomes, pH 7.4
Report as a plain number; the unit mL/min/kg is understood.

{"MOLECULE": "Cc1nc(Nc2ncc(C(=O)Nc3c(C)cccc3Cl)s2)cc(N2CCN(CCO)CC2)n1 [Dasatinib, reference compound]", "CLint scaled at 1 μM, mL/min/kg": 211}

Need CLint scaled at 1 μM, item Cc1nc(Nc2ncc(C(=O)Nc3c(C)cc(F)cc3Cl)s2)cc(N2CCN(CCO)CC2)n1
142
